Source listed as the Immune Epitope Database (IEDB).

Target: HLA-A*31:01
Assay: IEDB peptide-MHC binding, purified MHC/direct/fluorescence; filed as Kd, often an IC50 or EC50 that approximates it; bounds were set here for any values at or beyond the usual limits of such assays
Settings: source organism: Shigella sonnei Ss046
Readout: Kd

State its Kd on HLA-A*31:01: `VLDMGDPVK` ≥ 20 µM

* * *

Target: HLA-A*03:01
Assay: IEDB peptide-MHC binding, purified MHC/competitive/fluorescence; bounds were set here for any values at or beyond the usual limits of such assays
Details: source organism: Zaire ebolavirus
pIC50: −log10 of the molar value.
I'd appreciate it if you could supply pIC50 values for the items below.

Below: 2 sequences and their reported pIC50.
HGFRFEVKK
5.66
KFMAILQHH
≤ 3.52

Query (sequence): `IALGVATAH` ; field requested: pIC50 ≤ 3.79
